Exercise: for every item that follows, state its recorded melting point.

Inquiry: Recorded melting point of NC(=NNC(=S)N1CCCC1)c1cccc(N2CCCCC2)n1 , please.
Reply text: 166 to 168 °C

Inquiry: Please give the result for NC(=NNC(=S)N1CCOCC1)c1cccc(Oc2ccccc2)n1 too.
Reply text: 131 to 134 °C

Inquiry: Let us now turn to NC(=NNC(=S)N1CCOCC1)c1cccc(N2CCCC2)n1
Reply text: 180 to 182 °C

Inquiry: Now the compound NC(=NNC(=S)N1CCCC1)c1cccc(N2CCCC2)n1
Reply text: 200 to 201 °C

Inquiry: Now the compound NC(=NNC(=S)N1CCOCC1)c1cccc(N2CCCCC2)n1
Reply text: 177 to 178 °C

Inquiry: Same question, NC(=NNC(=S)N1CCCC1)c1cccc(Oc2ccccc2)n1 this time
Reply text: 170 to 173 °C

Values compiled from paper PMC9822072.
